Assay: cAMP Responsive Elements (CRE) small molecule agonists, cell-based qHTS assay (AID 1963590)
Details: CRE-bla HEK293T, beta-lactamase FRET ratio, 3 h; series mostly up to 92.4 µM
Records with an inconclusive call do not appear. Active and inactive are the calls of the source. The call rests on the fitted dose curve.
Measurement label: activation

{"Molecule": "COCCOC[C@H](CC1(C(=O)NC2CCC(C(=O)O)CC2)CCCC1)C(=O)Oc1ccc2c(c1)CCC2 (some centres undefined)", "Measurement label": "activation", "Result value": "inactive"}
{"Molecule": "C=CCOC(=O)CCC1CCCCC1", "Measurement label": "activation", "Result value": "inactive"}
{"Molecule": "CC(=O)NCCCS(=O)(=O)O", "Measurement label": "activation", "Result value": "inactive"}
{"Molecule": "C=C(C)c1cccc(C(=C)C)c1", "Measurement label": "activation", "Result value": "inactive"}
{"Molecule": "CC(=O)c1ccc(OCC(=O)N2CCCCC2)cc1", "Measurement label": "activation", "Result value": "inactive"}

Enquiry: Quick one: activation for C=CC(C)(C)CC(=O)OC ?
Return: inactive

Enquiry: Quick one: activation for COC(=O)c1ccccc1OC ?
Return: inactive

Enquiry: Quick one: activation for Cc1c(C)c2c(c(C)c1OC(=O)c1cccnc1)CC[C@@](C)(CCC[C@H](C)CCC[C@H](C)CCCC(C)C)O2 ?
Return: inactive

Enquiry: Quick one: activation for CCCCCCCCCCCCN1CCCCCC1=O ?
Return: inactive

* * *

Experiment: p53 small molecule agonists, cell-based qHTS assay with human liver microsomes: qHTS cell viability counter screen (AID 1963579); further: nearly all actives have a fitted effect of over 45% in size
Conditions: p53RE-bla HCT-116 viability, ATP luminescence, 16 h, HLM; series mostly up to 66 µM
Excerpt: National Center for Advancing Translational Sciences [NCATS] Division of Preclinical Innovation [DPI] U.S. Environmental Protection Agency [EPA] National Institutes of Environmental Health Sciences [NIEHS] National Toxicology Program [NTP] U.S. Food and Drug Administration [FDA] p53, a tumor suppressor protein, is activated following cellular insult, including DNA damage and other cellular stresses. […] The activation of the reporter gene under culture conditions can be detected by fluorescence intensity. […]
Inconclusive results are not listed. Active and inactive are the calls of the source. The call rests on the fitted dose curve.
Bench note: report the call from true (active), false (inactive)

Enquiry: Record lookup: outcome of this test for O=C(/C=C/c1ccc(O)c(O)c1)O[C@@H](C(=O)O)[C@@H](OC(=O)/C=C/c1ccc(O)c(O)c1)C(=O)O ?
Return: false

Enquiry: Record lookup: outcome of this test for COC(=O)[C@@H](N)Cc1ccc(O)c(O)c1 ?
Return: false

Enquiry: Record lookup: outcome of this test for CCOc1nc2cccc(C(=O)OC(C)OC(=O)OC3CCCCC3)c2n1Cc1ccc(-c2ccccc2-c2nn[nH]n2)cc1 (stereo not drawn) ?
Return: true

Enquiry: Record lookup: outcome of this test for OCCN1CCN(CCO)CC1 ?
Return: false

Enquiry: Record lookup: outcome of this test for Clc1cc(Cl)c2c(c1)N=C1CCCCCN1C2 ?
Return: false

Enquiry: Record lookup: outcome of this test for CCCCNc1ccc(C(=O)OCCN(CC)CC)cc1 ?
Return: false

Enquiry: Record lookup: outcome of this test for CC(Cc1ccc(O)c(O)c1)C(C)Cc1ccc(O)c(O)c1 (stereo not drawn) ?
Return: false

Enquiry: Record lookup: outcome of this test for Oc1c(I)cc(Cl)c2cccnc12 ?
Return: false

Enquiry: Record lookup: outcome of this test for Cc1ccc([N+](=O)[O-])cc1Cl ?
Return: false

Enquiry: Record lookup: outcome of this test for O=Cc1ccccc1S(=O)(=O)O ?
Return: false

Enquiry: Record lookup: outcome of this test for C1CCC(C(CC2CCCCN2)C2CCCCC2)CC1 (stereo not drawn) ?
Return: false

Enquiry: Record lookup: outcome of this test for C#C[C@]1(O)CC[C@H]2[C@@H]3[C@H](C)CC4=C(CCC(=O)C4)[C@H]3CC[C@@]21C ?
Return: false

Enquiry: Record lookup: outcome of this test for Cc1cccc(C)c1NC(=O)CN(CC(=O)O)CC(=O)O ?
Return: false

Enquiry: Record lookup: outcome of this test for Cc1cc2nc(N)sc2cc1C ?
Return: false

Enquiry: Record lookup: outcome of this test for CCC(C)OC(C)CC (stereo not drawn) ?
Return: false

Enquiry: Record lookup: outcome of this test for CC1=NN(c2cc(S(=O)(=O)O)ccc2Cl)C(=O)C1N=Nc1ccccc1 (stereo not drawn) ?
Return: false

Enquiry: Record lookup: outcome of this test for O=C(Oc1ccccc1)Oc1ccccc1 ?
Return: false

Enquiry: Record lookup: outcome of this test for O=C1CCc2cc(OCCCCc3nnnn3C3CCCCC3)ccc2N1 ?
Return: false

Enquiry: Record lookup: outcome of this test for CC(C)C(C)C ?
Return: false

Enquiry: Record lookup: outcome of this test for CCCCOCC(C)OCC(C)O (stereo not drawn) ?
Return: false

Enquiry: Record lookup: outcome of this test for O=C(O)c1ccc2cc(C(=O)O)ccc2c1 ?
Return: false

Enquiry: Record lookup: outcome of this test for Cc1ccc(C#N)cc1 ?
Return: false

Enquiry: Record lookup: outcome of this test for C[C@@]12CCC[C@H]1[C@@H]1CC[C@H]3C[C@@H](O)CC[C@]3(C)[C@H]1CC2 ?
Return: false

Enquiry: Record lookup: outcome of this test for CO[C@@]1(NC(=O)Cc2cccs2)C(=O)N2C(C(=O)O)=C(COC(N)=O)CS[C@@H]21 ?
Return: false

Enquiry: Record lookup: outcome of this test for NCCCN1CCOCC1 ?
Return: false

Enquiry: Record lookup: outcome of this test for O=C(O)CNC(=O)c1ccccc1 ?
Return: false

Enquiry: Record lookup: outcome of this test for CC1(C)O[C@@H]2C[C@H]3[C@@H]4C[C@H](F)C5=CC(=O)C=C[C@]5(C)[C@H]4[C@@H](O)C[C@]3(C)[C@]2(C(=O)CO)O1 ?
Return: false

Enquiry: Record lookup: outcome of this test for CC(CCc1ccc2c(c1)OCO2)NN (stereo not drawn) ?
Return: false

Enquiry: Record lookup: outcome of this test for C[C@H]1COc2c(C3(N)CC3)c(F)cc3c(=O)c(C(=O)O)cn1c23 ?
Return: false

Enquiry: Record lookup: outcome of this test for CCc1ccccc1 ?
Return: false

Enquiry: Record lookup: outcome of this test for CCCCCCCC/C=C/CCCCCCCC1=NCCN1CCO ?
Return: false

Enquiry: Record lookup: outcome of this test for CC(C)c1ccccc1C(C)C ?
Return: false

Enquiry: Record lookup: outcome of this test for CC(O)CN (stereo not drawn) ?
Return: false

Enquiry: Record lookup: outcome of this test for CCCCC(CC)COC(=O)COc1cc(Cl)c(Cl)cc1Cl (stereo not drawn) ?
Return: false

Enquiry: Record lookup: outcome of this test for Cc1ccc(N)cc1S(=O)(=O)O ?
Return: false

Enquiry: Record lookup: outcome of this test for O=S(=O)(O)c1ccccc1/C=C/c1ccc(-c2ccc(/C=C/c3ccccc3S(=O)(=O)O)cc2)cc1 ?
Return: false

Enquiry: Record lookup: outcome of this test for CC(C)(C)c1cc(CO)cc(C(C)(C)C)c1O ?
Return: false

Enquiry: Record lookup: outcome of this test for O=C(O)c1ccc(-n2nc(-c3ccccc3O)nc2-c2ccccc2O)cc1 ?
Return: false

Enquiry: Record lookup: outcome of this test for NNC(=O)CCCCC(=O)NN ?
Return: false

Enquiry: Record lookup: outcome of this test for C=C1CC[C@H]2C[C@@H]1C2(C)C ?
Return: false

Enquiry: Record lookup: outcome of this test for CCC(C)OC(=O)N1CCCCC1CCO (stereo not drawn) ?
Return: false

Enquiry: Record lookup: outcome of this test for O=C(CCCCCCC(=O)Nc1ccccc1)NO ?
Return: false

Enquiry: Record lookup: outcome of this test for Nc1ccc2cc3ccc(N)cc3nc2c1 ?
Return: false

Enquiry: Record lookup: outcome of this test for CC(O)CC(C)O (stereo not drawn) ?
Return: false

Enquiry: Record lookup: outcome of this test for CC1CCC(=O)C1=O (stereo not drawn) ?
Return: false

Enquiry: Record lookup: outcome of this test for NC(=O)c1nc(-c2cccc(-c3cc(F)ccc3OCC(F)(F)C(F)(F)F)c2)n[nH]1 ?
Return: false

Enquiry: Record lookup: outcome of this test for CC1=CCCC(C)(C)C12CCC(C)O2 (stereo not drawn) ?
Return: false

Enquiry: Record lookup: outcome of this test for Cc1ccc(N)cc1O ?
Return: true

Enquiry: Record lookup: outcome of this test for CCOCC(C)O (stereo not drawn) ?
Return: false

Enquiry: Record lookup: outcome of this test for CCN(CC)C(=O)c1ccc(O)c(OC)c1 ?
Return: false

Enquiry: Record lookup: outcome of this test for CCCCN1C(=O)[C@@H]([C@H](O)C2CCCCC2)NC(=O)C12CCN(Cc1ccc(Oc3ccc(C(=O)O)cc3)cc1)CC2 ?
Return: false

Enquiry: Record lookup: outcome of this test for CS(C)=O ?
Return: false

Enquiry: Record lookup: outcome of this test for O=[N+]([O-])c1cccc(C(F)(F)F)c1 ?
Return: false

Measured values drawn from PubChem BioAssay (Tox21) for this set.
